The following binders are listed with their measured Top (best-fit) values.
molecular target: T1, cynomolgus TIGIT over-expressed on CHO-K1 cells (cynomolgus, UniProt A0A7N9I9V4 89-312); test: FACS, CHO-K1 cells over-expressing cynomolgus TIGIT
T1 construct: whole, on cells; also called CHO-K1/cynomolgus TIGIT cells
T1 sequence (A0A7N9I9V4 entry or part of it): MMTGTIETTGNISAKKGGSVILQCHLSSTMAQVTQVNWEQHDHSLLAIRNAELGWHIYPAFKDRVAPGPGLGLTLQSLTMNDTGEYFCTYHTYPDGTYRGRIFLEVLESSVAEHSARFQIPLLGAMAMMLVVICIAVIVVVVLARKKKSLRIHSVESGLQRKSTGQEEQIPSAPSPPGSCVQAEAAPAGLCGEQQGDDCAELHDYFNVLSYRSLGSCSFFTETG

- binder: "104G12E12G2 (antibody, V domains shown, Mouse monoclonal antibody; also called mouse anti-human TIGIT monoclonal antibody 104G12E12G2) VH: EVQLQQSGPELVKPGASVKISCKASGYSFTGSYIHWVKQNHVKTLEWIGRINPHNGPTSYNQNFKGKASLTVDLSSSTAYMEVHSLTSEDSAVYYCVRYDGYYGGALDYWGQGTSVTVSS VL: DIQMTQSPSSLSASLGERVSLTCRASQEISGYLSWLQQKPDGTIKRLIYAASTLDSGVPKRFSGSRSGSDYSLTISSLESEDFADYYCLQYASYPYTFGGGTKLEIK"
  Top (best-fit): 80.6
- binder: "121C2F10B5 (antibody, V domains shown, Mouse monoclonal antibody; also called mouse anti-human TIGIT monoclonal antibody 121C2F10B5) VH: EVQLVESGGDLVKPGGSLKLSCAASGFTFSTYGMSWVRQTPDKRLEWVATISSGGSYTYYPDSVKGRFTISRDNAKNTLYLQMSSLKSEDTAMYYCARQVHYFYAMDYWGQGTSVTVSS VL: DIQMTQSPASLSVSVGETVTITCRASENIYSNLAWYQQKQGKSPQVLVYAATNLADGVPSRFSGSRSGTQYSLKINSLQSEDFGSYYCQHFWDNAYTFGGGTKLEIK"
  Top (best-fit): 120
- binder: "92E9D4B4 (antibody, V domains shown, Mouse monoclonal antibody; also called mouse anti-human TIGIT monoclonal antibody 92E9D4B4) VH: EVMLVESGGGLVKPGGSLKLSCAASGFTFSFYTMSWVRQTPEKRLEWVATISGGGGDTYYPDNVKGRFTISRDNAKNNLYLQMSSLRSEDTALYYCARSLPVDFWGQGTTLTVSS VL: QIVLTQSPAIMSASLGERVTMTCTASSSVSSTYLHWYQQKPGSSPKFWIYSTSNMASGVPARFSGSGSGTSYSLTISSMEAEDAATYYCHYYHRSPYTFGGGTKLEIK"
  Top (best-fit): 348
